ASSAY_SYSTEM: human TrkA receptor (Homo sapiens (Human), UniProt P04629)
Sequence (P04629 33-796): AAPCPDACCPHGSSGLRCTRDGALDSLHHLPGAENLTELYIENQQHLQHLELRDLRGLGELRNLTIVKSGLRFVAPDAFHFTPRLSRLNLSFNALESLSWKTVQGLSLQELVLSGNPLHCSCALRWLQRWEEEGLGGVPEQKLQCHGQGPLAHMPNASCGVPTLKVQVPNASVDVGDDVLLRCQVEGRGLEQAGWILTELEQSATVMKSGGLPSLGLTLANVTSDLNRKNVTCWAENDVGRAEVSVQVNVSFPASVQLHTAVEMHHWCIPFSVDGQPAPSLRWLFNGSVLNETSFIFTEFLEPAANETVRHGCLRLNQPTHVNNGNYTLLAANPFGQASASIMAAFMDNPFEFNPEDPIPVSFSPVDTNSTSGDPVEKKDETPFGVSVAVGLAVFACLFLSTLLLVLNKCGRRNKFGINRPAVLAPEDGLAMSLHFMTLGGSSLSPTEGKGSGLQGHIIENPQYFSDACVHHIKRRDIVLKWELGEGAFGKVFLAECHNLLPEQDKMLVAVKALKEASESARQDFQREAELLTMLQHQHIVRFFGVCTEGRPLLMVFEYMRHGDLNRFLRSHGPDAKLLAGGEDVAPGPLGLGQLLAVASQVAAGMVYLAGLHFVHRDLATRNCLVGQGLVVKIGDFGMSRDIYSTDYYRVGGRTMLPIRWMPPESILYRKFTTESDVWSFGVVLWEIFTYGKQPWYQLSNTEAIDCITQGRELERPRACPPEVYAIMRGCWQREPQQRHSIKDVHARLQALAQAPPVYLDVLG
PROTOCOL_NOTES: DiscoverX PathHunter TrkA functional assay (NGF-stimulated U2OS cells)
COND: U2OS cells expressing human TrkA-PK, Shc1-EA and p75NTR; compound 1 h, then NGF at ~80% of maximal response for 3 h; luminescence
Below is a list of entries, each paired with its recorded IC50 value.

{"columns": ["MOLECULE", "IC50 (nM)"],
 "data": [
  ["CN(C)C(=O)Cc1ncc(NC(=O)c2cc(-c3ccn(C)n3)c(C(F)(F)F)cc2F)c(-c2ccccc2)n1", 1.2],
  ["NC(=O)Cc1ncc(NC(=O)c2cc(-c3ncccn3)c(C(F)(F)F)cc2F)c(-c2ccccc2)n1", 14],
  ["Cc1ccn(-c2cc(C(=O)Nc3cnc(C)nc3-c3ccccc3)ccc2C(F)(F)F)n1", 15],
  ["CC(=O)NCc1ncc(NC(=O)c2ccc(C(F)(F)F)c(-c3ccn(C)n3)c2)c(-c2ccccc2)n1", 3.6],
  ["Cn1ccc(-c2cc(C(=O)Nc3cc(CC(N)=O)cnc3-c3ccccc3)ccc2C(F)(F)F)n1", 6],
  ["CNS(=O)(=O)Cc1ccc(NC(=O)c2cc(-c3ccn(C)n3)c(C(F)(F)F)cc2F)c(-c2ccccc2)n1", 4.4],
  ["O=C(Nc1cc2c(nc1-c1ccccc1)CCNC2)c1cc(-c2ccccn2)c(C(F)(F)F)cc1F", 13]
]}

====

ASSAY_SYSTEM: UniProt P04629
PROTOCOL_NOTES: DiscoverX PathHunter TrkA functional assay (NGF-stimulated U2OS cells)
COND: U2OS cells expressing human TrkA-PK, Shc1-EA and p75NTR; compound 1 h, then NGF at ~80% of maximal response for 3 h; luminescence
Assign labels as follows, please: TRUE for IC50 below 1 nM; FALSE for IC50 equal to or exceeding 1 nM.

{"columns": ["MOLECULE", "ASSIGNED_CATEGORY"],
 "data": [
  ["Cc1ncc(NC(=O)c2cc(-c3ccn(C)n3)c(C(F)(F)F)cc2Cl)c(-c2ccccc2)n1", "FALSE"],
  ["Cn1ccc(-c2cc(C(=O)Nc3cc(C4CCC(=O)N4)cnc3-c3ccccc3)c(F)cc2C(F)(F)F)n1 (single isomer, unassigned)", "FALSE"],
  ["Cn1ccc(-c2cc(C(=O)Nc3cnc(CN4CCCOC4=O)nc3-c3ccccc3)c(F)cc2C(F)(F)F)n1", "TRUE"],
  ["C[C@H](O)C(=O)N(C)Cc1ccc(NC(=O)c2cc(-c3ccn(C)n3)c(C(F)(F)F)cc2F)c(-c2ccccc2)n1", "TRUE"],
  ["Cc1coc(-c2cc(C(=O)Nc3cnc(C)nc3-c3ccccc3)ccc2C(F)(F)F)n1", "FALSE"],
  ["CNC(=O)c1ccc(-c2cnc(-c3ccccc3)c(NC(=O)c3cc(-c4cc[nH]n4)c(C(F)(F)F)cc3F)c2)cc1", "FALSE"],
  ["Cn1ccc(-c2cc(C(=O)Nc3ccc(C(O)CO)nc3-c3ccccc3)c(F)cc2C(F)(F)F)n1 (single isomer, unassigned)", "FALSE"]
]}

====

Below is a list of entries, each paired with its recorded pIC50 value.
ASSAY_SYSTEM: human TrkA receptor (Homo sapiens (Human), UniProt P04629)
PROTOCOL_NOTES: DiscoverX PathHunter TrkA functional assay (NGF-stimulated U2OS cells)
Type: cell-based
COND: U2OS cells expressing human TrkA-PK, Shc1-EA and p75NTR; compound 1 h, then NGF at ~80% of maximal response for 3 h; luminescence
pIC50: −log10 of the molar value.

{"columns": ["MOLECULE", "pIC50"],
 "data": [
  ["Cc1ncc(NC(=O)c2ccc(C)c(F)c2F)c(-c2ccccc2)n1", 5.37],
  ["NC(=O)c1ccnc(-c2cnc(-c3ccccc3)c(NC(=O)c3cc(-c4ncccn4)c(C(F)(F)F)cc3F)c2)n1", 8.31],
  ["Cn1ccc(-c2cc(C(=O)Nc3ccc(CC(N)=O)nc3-c3ccccc3)c(F)cc2C(F)(F)F)n1", 9.10],
  ["Cn1ccc(-c2cc(C(=O)Nc3cc(C(N)=O)c(N)nc3-c3ccccc3)ccc2C(F)(F)F)n1", 8.07]
]}
